Recorded Kp at 6 h by entry
Experiment: in vivo
Conditions: male, Sprague-Dawley, rat, in vivo, iv

>  <STRUCTURE_NOTATION>
CO[C@H]1/C=C\C=C(/C)C(=O)NC2=CC(=O)C(NCCN(C)C)=C(C[C@@H](C)C[C@H](OC)[C@H](O)[C@@H](C)/C=C(\C)[C@@H]1OC(N)=O)C2=O

>  <Kp at 6 h>
51.1

$$$$

Let's switch to this compound now.
Which Kp at 6 h value belongs to "CCNC(=O)c1noc(-c2cc(C(C)C)c(O)cc2O)c1-c1ccc(CN2CCOCC2)cc1" ?
165

* * *

Test: in vivo
Details: male, Sprague-Dawley, rat, iv
METRIC_NAME: MTD (mg/kg)
Record the value in mg/kg, omitting the unit from your answer.

Need MTD of "CC(C)c1cc(-c2nnc(S)n2-c2ccc3c(ccn3C)c2)c(O)cc1O" , thanks.
100
